Biological target: UniProt P47712
Sequence (P47712 whole entry): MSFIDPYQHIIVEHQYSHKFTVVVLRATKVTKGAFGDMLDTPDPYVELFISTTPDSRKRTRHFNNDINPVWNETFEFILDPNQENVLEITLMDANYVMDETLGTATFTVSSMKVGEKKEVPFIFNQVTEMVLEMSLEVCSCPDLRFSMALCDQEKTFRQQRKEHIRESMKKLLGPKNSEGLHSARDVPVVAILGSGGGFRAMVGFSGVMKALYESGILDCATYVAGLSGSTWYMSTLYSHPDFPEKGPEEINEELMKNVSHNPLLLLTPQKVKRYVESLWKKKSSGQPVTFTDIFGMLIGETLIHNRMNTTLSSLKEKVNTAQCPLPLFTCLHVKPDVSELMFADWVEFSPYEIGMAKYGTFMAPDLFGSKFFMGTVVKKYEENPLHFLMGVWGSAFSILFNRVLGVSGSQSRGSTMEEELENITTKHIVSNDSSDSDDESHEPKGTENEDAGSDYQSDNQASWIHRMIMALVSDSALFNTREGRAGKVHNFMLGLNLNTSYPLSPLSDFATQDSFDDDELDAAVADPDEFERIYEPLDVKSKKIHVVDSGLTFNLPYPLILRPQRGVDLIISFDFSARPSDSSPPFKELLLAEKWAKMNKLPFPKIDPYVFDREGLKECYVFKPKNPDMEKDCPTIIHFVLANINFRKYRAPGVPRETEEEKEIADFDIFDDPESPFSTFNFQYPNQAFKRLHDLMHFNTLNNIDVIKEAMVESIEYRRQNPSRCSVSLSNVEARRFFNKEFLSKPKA
Assay: Inhibition of human group-4 cPLA2 using Triton-X-100/PAPC/arachidonyl-1-14C PAPC/PIP2 substrate mixed micelles at 0.091 mole_fraction by modified dole assay relative to control
Each record here notes measured inhibition.
observable: inhibition (%)

>>> reported_result("COc1ccc(CCCCC(=O)C(=O)N[C@@H](CC(C)C)C(=O)NCCCC(=O)OC(C)(C)C)cc1")
58
>>> reported_result("CCCC[C@H](NC(=O)C(=O)CCCCc1ccc(OC)cc1)C(=O)NCC(=O)NCC(=O)OC(C)(C)C")
27.1
>>> reported_result("CCCC[C@H](NC(=O)C(=O)CCCCc1ccc(OC)cc1)C(=O)N[C@@H](C)C(=O)OC(C)(C)C")
57.4
>>> reported_result("CCCC[C@H](NC(=O)C(=O)CCCCc1ccc(OC)cc1)C(=O)NCCCC(=O)OC(C)(C)C")
52.6
>>> reported_result("CCCC[C@@H](NC(=O)C(=O)CCCCc1ccc(OC)cc1)C(=O)NCC(=O)OC(C)(C)C")
68
>>> reported_result("COc1ccc(CCCCC(=O)C(=O)N[C@@H](CC(C)C)C(=O)NCC(=O)OC(C)(C)C)cc1")
51.6
>>> reported_result("CCCC[C@H](NC(=O)C(=O)CCCCc1ccc2ccccc2c1)C(=O)NCC(=O)OCC")
70.5
>>> reported_result("CCCC[C@H](NC(=O)C(=O)CCCCc1ccc2ccccc2c1)C(=O)NCC(=O)OC(C)(C)C")
57.5
>>> reported_result("CCCC[C@H](NC(=O)C(=O)CCCCc1ccc(OC)cc1)C(=O)OC(C)(C)C")
85.7
>>> reported_result("CCCC[C@H](NC(=O)C(=O)CCCCc1ccc(OC)cc1)C(N)=O")
29.3
>>> reported_result("CCCC[C@H](NC(=O)C(=O)CCCCc1ccc(OC)cc1)C(=O)NCC(=O)OC(C)(C)C")
40.2
>>> reported_result("CC[C@H](C)[C@H](NC(=O)C(=O)CCCCc1ccc(OC)cc1)C(=O)NCC(=O)OC(C)(C)C")
57.3
>>> reported_result("CCCC[C@H](NC(=O)C(=O)CCCCc1ccc(OC)cc1)C(=O)NCCC(=O)OC(C)(C)C")
37.8
>>> reported_result("COc1ccc(CCCCC(=O)C(=O)N[C@H](C(=O)NCC(=O)OC(C)(C)C)C(C)C)cc1")
35.4
>>> reported_result("CCCC[C@H](NC(=O)C(=O)CCCCc1ccccc1)C(=O)NCC(=O)OC(C)(C)C")
46.9
>>> reported_result("CCCC[C@H](NC(=O)C(=O)CCCCc1ccc(OC)cc1)C(=O)NCC(=O)OCc1ccccc1")
52.3
>>> reported_result("CCCC[C@H](NC(=O)C(=O)CCCCc1ccc2ccccc2c1)C(=O)NCC(=O)O")
43.1

====

Test system: Phospholipase A2 group VI, Homo sapiens
Assay: Inhibition of human calcium-independent group-6A iPLA2 using Triton-X-100/PAPC/arachidonyl-1-14C PAPC substrate mixed micelles by modified dole assay
Each record here notes measured XI50 (mole fraction).
observable: XI50 (mole fraction)

>>> reported_result("COc1ccc(CCCCC(=O)C(=O)N[C@@H](CC(C)C)C(=O)NCC(=O)OC(C)(C)C)cc1")
0.024
>>> reported_result("CCCC[C@@H](NC(=O)C(=O)CCCCc1ccc(OC)cc1)C(=O)NCC(=O)OC(C)(C)C")
0.04
>>> reported_result("CCCC[C@H](NC(=O)C(=O)CCCCc1ccc(OC)cc1)C(=O)NCC(=O)OC(C)(C)C")
0.012
>>> reported_result("CCCC[C@H](NC(=O)C(=O)CCCCc1ccc(OC)cc1)C(=O)NCCCC(=O)OC(C)(C)C")
0.007
>>> reported_result("CCCC[C@H](NC(=O)C(=O)CCCCc1ccc(OC)cc1)C(=O)NCC(=O)OCc1ccccc1")
0.026
